Each recorded value in this set is attributed to the supplement of paper PMC6757056.

B1: library; a variant is named by its letters at N, in order (parent)
chain: GCUGUCACCGGUGCUUGGUACGUUAUAUUCAGCCGGUCUGAUGAGUCUNNNNNNAGACGAAACAGC

# Variants of: B1
# Protocol Details: normalized RNA/DNA level without ligand (relative to sTRSVctl = 100) (log10 (% of sTRSVctl)); HEK293T overexpressing SLC46A1; higher = less ribozyme self-cleavage, higher mRNA level
# Condition Description: without (6R,S)-folinic acid; ligand present: no
Property: normalized RNA/DNA level without ligand (log10); scope: individual variants
Observation Type: normalized RNA/DNA level without ligand (log10)

>>> quantitative_result("CACAGU")
2
>>> quantitative_result("AUGAGC")
2
>>> quantitative_result("CCUAUA")
2.03
>>> quantitative_result("GAGGUG")
1.97
>>> quantitative_result("UACGAC")
2.01
>>> quantitative_result("CAUACU")
2.01
>>> quantitative_result("GUCCCA")
2.04
>>> quantitative_result("CCACUG")
2.02
>>> quantitative_result("ACGCGC")
2
>>> quantitative_result("CCACGA")
2.01
>>> quantitative_result("UCGCAU")
1.97
>>> quantitative_result("CCAACU")
2.05
>>> quantitative_result("CAUCUA")
2.05
>>> quantitative_result("UGACAU")
1.95
>>> quantitative_result("ACCUGG")
1.98
>>> quantitative_result("AGUCCA")
2.02
>>> quantitative_result("GAUUCU")
2.01
>>> quantitative_result("AUCGAA")
1.97
>>> quantitative_result("GGGUAC")
1.95
>>> quantitative_result("UUGAUU")
2.02
>>> quantitative_result("CUAAAU")
1.98
>>> quantitative_result("UCGUAC")
2.03
>>> quantitative_result("CUCUUA")
2.01
